Reference source: paper PMC10986521

molecular target: FMDV 3Cpro (Foot-and-mouth disease virus A, UniProt A0A097I315); assay: biochemical; details: FRET assay (IC50)
Reported IC50 values for the following molecules.
readout-kind: IC50 (nM)

- CC(C)C[C@H](NC(=O)OCC(C)(C)Oc1ccccc1)C(=O)N[C@@H](C[C@@H]1CCNC1=O)C(O)S(=O)(=O)O (stereo partly shown) [Compound D10d]: 700
- CC(C)C[C@H](NC(=O)OCC(C)(C)Sc1ccccc1)C(=O)N[C@@H](C[C@@H]1CCNC1=O)C(=O)C(=O)NC1CC1: 3750
- CCCCNC(=O)C(=O)[C@H](C[C@@H]1CCNC1=O)NC(=O)[C@H](CC(C)C)NC(=O)OCc1ccccc1: 2100
- CC(C)C[C@H](NC(=O)OCC(C)(C)Oc1cccc(F)c1)C(=O)N[C@@H](C[C@@H]1CCNC1=O)C(O)S(=O)(=O)O (stereo partly shown) [Compound D16d]: 690
- [2H]C([2H])(OC(=O)N[C@@H](CC(C)C)C(=O)N[C@H](C=O)C[C@@H]1CCNC1=O)C(C)(C)Oc1cccc(Cl)c1 [Compound D14c]: 500
- [2H]C([2H])(OC(=O)N[C@@H](CC(C)C)C(=O)N[C@@H](C[C@@H]1CCNC1=O)C(O)S(=O)(=O)[O-])C(C)(C)Oc1cccc(Cl)c1.[Na+] (stereo partly shown) [Compound D14d]: 650
- CC(C)C[C@H](NC(=O)OC[C@@H]1C[C@H]1c1cccc(Cl)c1)C(=O)N[C@@H](C[C@H]1CCNC1=O)C(O)S(=O)(=O)O (stereo partly shown): 580
- CC(C)C[C@H](NC(=O)OCC(C)(C)S(=O)(=O)c1ccccc1)C(=O)N[C@H](C=O)C[C@@H]1CCNC1=O: 900
- CC(C)C[C@H](NC(=O)OC[C@@H]1C[C@H]1c1ccc(Cl)cc1)C(=O)N[C@@H](C[C@H]1CCNC1=O)C(O)S(=O)(=O)O (stereo partly shown): 550
- CC(C)C[C@H](NC(=O)OCC(C)(C)Oc1cccc(Cl)c1)C(=O)N[C@@H](C[C@@H]1CCNC1=O)C(O)S(=O)(=O)O (stereo partly shown) [Compound D13d]: 650

---

target: UniProt:A0A097I315; test: biochemical; set-up: species or system FMDV A/IND287/96 strain (serotype A); details: FRET assay (IC50)
pIC50: −log10 of the molar value.
readout-kind: pIC50

• CC(C)C[C@H](NC(=O)OCC(C)(C)S(=O)(=O)c1ccccc1)C(=O)N[C@@H](C[C@@H]1CCNC1=O)C(O)S(=O)(=O)O (some centres unmarked) = 6.19
• CC(C)C[C@H](NC(=O)OCC(C)(C)Sc1cccc(F)c1)C(=O)N[C@@H](C[C@@H]1CCNC1=O)C(O)S(=O)(=O)O (some centres unmarked) = 6.09
• CC(C)C[C@H](NC(=O)OC[C@@H]1C[C@H]1c1ccccc1)C(=O)N[C@@H](C[C@H]1CCNC1=O)C(O)S(=O)(=O)O (some centres unmarked) = 6.12
• CC(C)C[C@H](NC(=O)OC[C@@H]1C[C@H]1c1cccc(F)c1)C(=O)N[C@H](C=O)C[C@H]1CCNC1=O = 5.98
• COc1cccc([C@@H]2C[C@H]2COC(=O)N[C@@H](CC(C)C)C(=O)N[C@@H](C[C@H]2CCNC2=O)C(O)S(=O)(=O)O)c1 (some centres unmarked) = 6.08
• COc1ccccc1[C@@H]1C[C@H]1COC(=O)N[C@@H](CC(C)C)C(=O)N[C@H](C=O)C[C@H]1CCNC1=O [Compound C11c] = 6.02
• CC(C)C[C@H](NC(=O)OCC(C)(C)Oc1ccccc1)C(=O)N[C@H](C=O)C[C@@H]1CCNC1=O [Compound D10c] = 6.13
• CC(C)C[C@H](NC(=O)OC[C@H]1[C@H](c2ccccc2)C1(F)F)C(=O)N[C@H](C=O)C[C@H]1CCNC1=O = 5.87
